Origin of measurements: patent US20250270191A1

SYSTEM_TESTED: Human BCL6 protein (N-terminal HiBiT tagged BCL6 in HT1080 cells) (Homo sapiens, UniProt P41182+Q96SW2)
Construct: Human BCL6 protein coding open reading frame; expressed in transfected cells; host or cells: HT1080 (ATCC CCL-121), stably transduced with lentivirus pLV-UBC-N-HiBiT-BCL6-PGK-puro
PROCEDURE_TEXT: HiBiT based BCL6 degradation assay
Assay type: cell-based
CONDITION_SUMMARY: HT1080 cells expressing N-terminal HiBiT tagged BCL6; 5 hours incubation; BCL6 degradation normalized with DMSO control

COMPOUND	Ymin (5 hr)
CNC(=O)COc1cc2cc(Nc3nc(N4CCN(C(C)(C)C5CCN(c6cccc7c(C8CCC(=O)NC8=O)nn(C)c67)CC5)CC4)ncc3Cl)ccc2n(C)c1=O (stereo not drawn)	++++ (Ymin ≤ 25%)
CNC(=O)COc1cc2cc(Nc3nc(N4CCN(CC5CCN(c6ccc7c(C8CCC(=O)NC8=O)nn(C)c7c6)CC5)CC4)ncc3Cl)ccc2n(C)c1=O (stereo not drawn)	+++ (25% < Ymin ≤ 50%)
CNC(=O)COc1cc2cc(Nc3nc(N4CCN(CC5CCC6(CC5)CN(c5ccc7c(C8CCC(=O)NC8=O)nn(C)c7c5)C6)CC4)ncc3Cl)ccc2n(C(C)C)c1=O (stereo not drawn)	+++ (25% < Ymin ≤ 50%)
CNC(=O)COc1cc2cc(Nc3nc(N4CCC(C(=O)N5CCN(c6cccc7c(C8CCC(=O)NC8=O)nn(C)c67)CC5)CC4)ncc3Cl)ccc2n(C)c1=O (stereo not drawn)	++++ (Ymin ≤ 25%)

====

SYSTEM_TESTED: Human BCL6 protein (N-terminal HiBiT tagged BCL6 in HT1080 cells) (Homo sapiens, UniProt P41182+Q96SW2)
Construct: Human BCL6 protein coding open reading frame; expressed in transfected cells; host or cells: HT1080 (ATCC CCL-121), stably transduced with lentivirus pLV-UBC-N-HiBiT-BCL6-PGK-puro
PROCEDURE_TEXT: HiBiT based BCL6 degradation assay
Assay type: cell-based
CONDITION_SUMMARY: HT1080 cells expressing N-terminal HiBiT tagged BCL6; 5 hours incubation; BCL6 degradation normalized with DMSO control
Method: Human BCL6 protein coding open reading frame fused with N-terminal HiBiT coding sequence was synthesized from Integrated DNA Technologies (IDT). […] HT1080 cells expressing N-terminal HiBiT tagged BCL6 were dispensed into a 384-well plate pre-spotted with compounds at varying concentrations. […] After incubation, luminescence was read on a PHERAstar FSX Plate Reader (BMG). […]
QUANTITY_KIND: Ymin (5 hr)

Check out these entries, answers already filled in.
COMPOUND	OBSERVED_VALUE
CNC(=O)COc1cc2cc(Nc3nc(N4CCC[C@@H]4CNc4cccc(C5CCC(=O)NC5=O)c4)ncc3Cl)ccc2n(C)c1=O (some centres unmarked) [Compound 260a]	++ (50% < Ymin ≤ 70%)
CNC(=O)COc1cc2cc(Nc3nc(N4CCC(CC5CCN(c6cccc7c(C8CCC(=O)NC8=O)nn(C)c67)CC5)CC4)ncc3Cl)ccc2n(C)c1=O (centres unmarked) [Compound 281]	+++ (25% < Ymin ≤ 50%)
CNC(=O)COc1cc2cc(Nc3nc(N4CCN(CC5CCN(c6ccc7c(C8CCC(=O)NC8=O)nn(C)c7c6)CC5)[C@@H](C)C4)ncc3Cl)ccc2n(C)c1=O (some centres unmarked) [Compound 309b]	+++ (25% < Ymin ≤ 50%)
CNC(=O)COc1cc2cc(Nc3nc(N4CCC(CN5CCN(C(=O)c6ccc7c(C8CCC(=O)NC8=O)nn(C)c7c6)CC5)CC4)ncc3Cl)ccc2n(C)c1=O (centres unmarked) [Compound 322]	+++ (25% < Ymin ≤ 50%)
CNC(=O)COc1cc2cc(Nc3nc(NC[C@H]4CC[C@H](Nc5ccc6c(C7CCC(=O)NC7=O)nn(C)c6c5)CC4)ncc3Cl)ccc2n(C)c1=O (some centres unmarked) [Compound 289b]	++++ (Ymin ≤ 25%)
CNC(=O)COc1cc2cc(Nc3nc(N4CCC(CC5CCN(c6cccc7c(C8CCC(=O)NC8=O)nn(C)c67)C5)CC4)ncc3Cl)ccc2n(C)c1=O (centres unmarked) [Compound 320]	+++ (25% < Ymin ≤ 50%)

Query: Which Ymin (5 hr) is reported for this compound? CNC(=O)COc1cc2cc(Nc3nc(N4CCC[C@@H](CNc5cccc6c(C7CCC(=O)NC7=O)nn(C)c56)C4)ncc3Cl)ccc2n(C)c1=O (some centres unmarked) [Compound 266a]
Result: ++ (50% < Ymin ≤ 70%)

Query: Please give the result for CNC(=O)COc1cc2cc(Nc3nc(N4CCN(C(=O)C5CCN(c6cccc7c(C8CCC(=O)NC8=O)nn(C)c67)CC5)CC4)ncc3Cl)ccc2n(C)c1=O (centres unmarked) [Compound 345] too.
Result: ++++ (Ymin ≤ 25%)

Query: Please give the result for CNC(=O)COc1cc2cc(Nc3nc(NC[C@H]4CC[C@H](Nc5cccc6c(C7CCC(=O)NC7=O)nn(C)c56)CC4)ncc3Cl)ccc2n(C)c1=O (some centres unmarked) [Compound 304b] too.
Result: ++ (50% < Ymin ≤ 70%)

Query: Please give the result for CNC(=O)COc1cc2cc(Nc3nc(NC[C@H]4CC[C@@H](CNc5cccc6c(C7CCC(=O)NC7=O)nn(C)c56)CC4)ncc3Cl)ccc2n(C)c1=O (some centres unmarked) [Compound 297a] too.
Result: ++ (50% < Ymin ≤ 70%)

Query: Please give the result for CNC(=O)COc1cc2cc(Nc3nc(N4CCN(CC5CCN(C(=O)c6ccc7c(C8CCC(=O)NC8=O)nn(C)c7c6)CC5)CC4)ncc3Cl)ccc2n(C)c1=O (centres unmarked) [Compound 321] too.
Result: +++ (25% < Ymin ≤ 50%)
